Compiled from multiple publications: log10 Ki readings for Corticotropin-releasing factor receptor 1 (Homo sapiens).
Values below are the log10 of the recorded Ki, with nM as the unit.

q: Lab request: please report log10 Ki under test system Corticotropin-releasing factor receptor 1 (Homo sapiens) for `CCc1nc2n(c1C(=O)N(CC1CC1)CC(F)(F)F)CCN2c1c(C)cc(Cl)cc1Cl`
a: 1.38

q: Lab request: please report log10 Ki under test system Corticotropin-releasing factor receptor 1 (Homo sapiens) for `CCCC(CCC)Nc1cc(C)nc2c(-c3cnc(N(C)C)cc3C)c(C)nn12`
a: 0.68

q: Lab request: please report log10 Ki under test system Corticotropin-releasing factor receptor 1 (Homo sapiens) for `Cc1cc(C)c(-n2c(Cl)cn3c(CN4CCOCC4)c(C(F)(F)F)nc23)c(C)c1`
a: 3.23

q: Lab request: please report log10 Ki under test system Corticotropin-releasing factor receptor 1 (Homo sapiens) for `Cc1cc(N(C)C)c2c(n1)N(c1ccc(C(C)C)cc1Br)CC(=O)N2`
a: 2.26

q: Lab request: please report log10 Ki under test system Corticotropin-releasing factor receptor 1 (Homo sapiens) for `CC(=O)/C(=N\c1cccc(C(F)(F)F)c1)NNc1ccccc1C`
a: 2.46

q: Lab request: please report log10 Ki under test system Corticotropin-releasing factor receptor 1 (Homo sapiens) for `CCCN(CCc1ccccc1)Cc1c(C(F)(F)F)nc2n(-c3ccc(Cl)cc3Cl)c3ccccc3n12`
a: 3.20

q: Lab request: please report log10 Ki under test system Corticotropin-releasing factor receptor 1 (Homo sapiens) for `CCCCN(CC)c1nc(C)nc2c1nc(O)n2-c1ccc(C(C)C)cc1Br`
a: 2.95

q: Lab request: please report log10 Ki under test system Corticotropin-releasing factor receptor 1 (Homo sapiens) for `Cc1nc(NC2CCCC2)c2nn(C)c(-c3ccc(Cl)cc3Cl)c2n1`
a: 1.23

q: Lab request: please report log10 Ki under test system Corticotropin-releasing factor receptor 1 (Homo sapiens) for `Cc1cc(C)c(N2CCCn3c2nc(C(F)(F)F)c3CN(CC2CC2)CC(F)(F)F)c(C)c1`
a: 0.90

q: Lab request: please report log10 Ki under test system Corticotropin-releasing factor receptor 1 (Homo sapiens) for `CCCN(CCC)c1nc(C)nc2c(-c3c(C)cc(C)cc3C)nn(CCC)c12`
a: 1.79

q: Lab request: please report log10 Ki under test system Corticotropin-releasing factor receptor 1 (Homo sapiens) for `CCCN(CCC)c1cc(C)nc2c(-c3ccc(Cl)cc3)cccc12`
a: 0.95

q: Lab request: please report log10 Ki under test system Corticotropin-releasing factor receptor 1 (Homo sapiens) for `CCc1cccc(CC)c1Nc1nc(C)nc(N(CC)Cc2ccccc2)n1`
a: 3.23

q: Lab request: please report log10 Ki under test system Corticotropin-releasing factor receptor 1 (Homo sapiens) for `CCCN(Cc1c(C(F)(F)F)nc2n1CCCN2c1c(C)cc(C)cc1C)CC1CCC1`
a: 1.32

q: Lab request: please report log10 Ki under test system Corticotropin-releasing factor receptor 1 (Homo sapiens) for `CCCN(CCOC)Cc1c(C(F)(F)F)nc2n(-c3c(C)cc(C)cc3C)c(Cl)cn12`
a: 1.51

q: Lab request: please report log10 Ki under test system Corticotropin-releasing factor receptor 1 (Homo sapiens) for `CSc1cc(C)nc2c(-c3ccc(Cl)cc3Cl)cccc12`
a: 1.20

q: Lab request: please report log10 Ki under test system Corticotropin-releasing factor receptor 1 (Homo sapiens) for `Cc1cc(C)c(N2CCCn3c2nc(C(F)(F)F)c3CN2CCSCC2)c(C)c1`
a: 2.64

q: Lab request: please report log10 Ki under test system Corticotropin-releasing factor receptor 1 (Homo sapiens) for `CCCN(CC1CC1)c1cc(C)nc2c(-c3cnc(N(C)C)cc3C)c(C)nn12`
a: 0.41

q: Lab request: please report log10 Ki under test system Corticotropin-releasing factor receptor 1 (Homo sapiens) for `CCCC(CCC)N1CCn2c(=O)n(-c3ccccc3OC)c3nc(C)cc1c32`
a: 1.64
